Source: ChEMBL document CHEMBL1157539

# Tested on: Plasmodium falciparum
# experiment_summary: GSK_TCMDC: Inhibition of Plasmodium falciparum 3D7 in whole red blood cells, using parasite LDH activity as an index of growth. Test compounds present at 2uM
# Format: functional
As shown below, each of these molecules has a reported Inhibition value.
API: value field is a number in %; no unit string.

[[record]]
molecule = "COCCN1CCN(Cc2cccc(-c3ccc(-c4nc5ccccc5[nH]4)cc3)c2)CC1.O=C(O)C(F)(F)F"
measured = 100

[[record]]
molecule = "O=C(Nc1ccc(F)c(Cl)c1)c1cc([N+](=O)[O-])cc2cn[nH]c12"
measured = 100

[[record]]
molecule = "COc1ccccc1OCCN(CC(O)COc1cccc2[nH]c3ccccc3c12)CC(O)COc1cccc2[nH]c3ccccc3c12 (stereo not given)"
measured = 97


Query string: // Inhibition lookup, key: CCOc1ccc(-c2nonc2NC(=O)c2cccs2)cc1OCC
Result string: 100

Query string: Any idea what Inhibition was measured for O=C(Nc1ccccc1O)c1ccc(Oc2cccc(C(=O)Nc3ccccc3O)c2)cc1 ?
Result string: 97

Query string: So what does the record say about Inhibition for Cc1noc(C)c1-c1ccc2c(Nc3ccc(C#N)cc3)c(C(N)=O)cnc2c1 ?
Result string: 97

Query string: Suppose we examine the molecule Cn1c(N)c(C(=O)CSc2ncc(-c3ccc(F)cc3)n2Cc2ccccc2)c(=O)n(C)c1=O ; what Inhibition value has been reported?
Result string: 88

Query string: Which Inhibition value is on record for COc1ccc(-c2cnc(N)nc2N)cc1Cl ?
Result string: 84

Query string: Request the reported Inhibition associated with CCc1cc(-c2onc(C)c2-c2cc3ccccc3o2)c(O)cc1OC
Result string: 95

Query string: Entry under review: O=C(/C=C/c1ccc(Cl)c(Cl)c1)NCCCCCN1CCCN(C(=O)Nc2ccc(F)c(Cl)c2)CC1 . Reported Inhibition?
Result string: 95
